Target: Sa-ClpP (Staphylococcus aureus)
Construct: made in house; host or cells: E. coli BL21(DE3)
Sequence (Q2G036 1-195): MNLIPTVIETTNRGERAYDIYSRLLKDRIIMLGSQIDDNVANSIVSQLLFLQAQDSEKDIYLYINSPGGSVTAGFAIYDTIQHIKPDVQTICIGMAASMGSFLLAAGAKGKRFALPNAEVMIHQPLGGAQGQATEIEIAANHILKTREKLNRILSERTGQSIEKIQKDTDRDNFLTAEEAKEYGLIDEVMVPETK
Assay: Sa-ClpP casein-BODIPY ClpP activation assay, method variant not marked in Table 5
Format: biochemical, S. aureus
Settings: values without ** or † mark; assay variant not stated; read-out: ClpP Activation EC50
*1 amine or outer side, *2 acyl side, *3 side chain or, on linkers, in order; H or OH if unused. Where a SMILES comes first, the peptide text is derived from it. Bridges are numbered along the chain shown (N, C = ends). [ ]: non-standard residue; d: D form. The star is where a group is joined. Phe(3,5-F2) = N[C@@H](Cc1cc(F)cc(F)c1)C(=O)O; NH(1-Me-indolin-5-yl) = CN1CCc2cc(N*)ccc21; NH(4-OCF3-phenyl) = FC(F)(F)Oc1ccc(N*)cc1; Morpholine(3S-CO) = O=C(O)[C@@H]1COCCN1; Pro(4S-Me) = C[C@@H]1CN[C@H](C(=O)O)C1; Pro(4R-Me) = C[C@H]1CN[C@H](C(=O)O)C1; NMeaThr = CN[C@H](C(=O)O)[C@H](C)O; NH(4-Et-phenyl) = CCc1ccc(N*)cc1; aThr = C[C@H](O)[C@H](N)C(=O)O; CO = O=C([*:1])[*:2]
metric: EC50 (nM)
Reply numerically in nM, unit not repeated.

Query :: What does the data say about its EC50? Entry: C[C@@H]1C[C@H]2C(=O)O[C@@H](C)[C@H](NC(=O)[C@H](Cc3cc(F)cc(F)c3)NC(=O)Nc3ccc4c(c3)CCN4C)C(=O)N3CCC[C@H]3C(=O)N3CCOC[C@H]3C(=O)N[C@@H](C)C(=O)N2C1 [Compound 312] ({NH(1-Me-indolin-5-yl)-CO}-[Phe(3,5-F2)][aThr]P[Morpholine(3S-CO)]A[Pro(4R-Me)]; ester 2-C)
Result :: 440

Query :: Further, for CCc1ccc(NC(=O)N[C@@H](Cc2cc(F)cc(F)c2)C(=O)N[C@@H]2C(=O)N3CCC[C@H]3C(=O)N(C)[C@@H]([C@H](C)O)C(=O)N[C@@H](C)C(=O)N3C[C@@H](C)C[C@H]3C(=O)O[C@H]2C)cc1 [Compound 204] ({NH(4-Et-phenyl)-CO}-[Phe(3,5-F2)][aThr]P[NMeaThr]A[Pro(4S-Me)]; ester 2-C) ?
Result :: 350

Query :: Then what about the compound C[C@H]1C[C@H]2C(=O)O[C@@H](C)[C@H](NC(=O)[C@H](Cc3cc(F)cc(F)c3)NC(=O)Nc3ccc(OC(F)(F)F)cc3)C(=O)N3CCC[C@H]3C(=O)N3CCOC[C@H]3C(=O)N[C@@H](C)C(=O)N2C1 [Compound 201] ({NH(4-OCF3-phenyl)-CO}-[Phe(3,5-F2)][aThr]P[Morpholine(3S-CO)]A[Pro(4S-Me)]; ester 2-C) ?
Result :: 330
